- System: MOLM-13
- Test details: Proliferation inhibition, CellTiter-Glo, MOLM-13
- Format: cell-based, human
- Setup conditions: Homo sapiens, 96 h; MOLM-13 cells, IC50 (4 days), CellTiter-Glo; read-out: MOLM-13 IC50
// reported IC50 for each item listed
Measured metric: IC50

Compound: [2H]C([2H])([2H])N(C/C=C/C(=O)N(C)[C@@H](C)C(=O)NCCc1cccc(Nc2nc(N(C)CC)c(CC)nc2C(N)=O)c1)C([2H])([2H])[2H]
Measured metric: IC50
Assay result: < 1 nM
//
Compound: CCc1nc(C(N)=O)c(Nc2cccc(CCNC(=O)CN(C)C(=O)/C=C/CN(C)C)c2)nc1C
Measured metric: IC50
Assay result: 1 to 10 nM
//
Compound: C=CC(=O)N(C)[C@@H](C)C(=O)NCCc1cccc(Nc2nc(C)c(C)nc2C(N)=O)c1
Measured metric: IC50
Assay result: > 500 nM
//
Compound: CCc1nc(C(N)=O)c(Nc2cc(F)cc(CCNC(=O)[C@H](C)N(C)C(=O)/C=C/CN(C)C)c2)nc1C1CC1
Measured metric: IC50
Assay result: 1 to 10 nM
//
Compound: C=CC(=O)N(C)CC(=O)NCCc1cccc(Nc2nc(N(C)C(C)C)c(C)nc2C(N)=O)c1
Measured metric: IC50
Assay result: 100 to 500 nM
//
Compound: CCc1nc(C(N)=O)c(Nc2cccc(CCNC(=O)[C@H](C)N(C)C(=O)/C(F)=C/CN(C)C)c2)nc1N(C)C
Measured metric: IC50
Assay result: 100 to 500 nM
//
Compound: CCc1nc(C(N)=O)c(Nc2cccc(CCNC(=O)[C@@H](C)N(C)C(=O)/C=C/CN(C)C)c2)nc1C
Measured metric: IC50
Assay result: > 500 nM
